# System: Adjuvant Induced Arthritis in Rats
# method summary: Anti-inflammatory and analgesic effects on adjuvant induced arthritis in rats
# Type: in vivo, rat
# Design: scale not given: direction of the effect not stated beside the values
# particulars: Lewis male rats, oral 0.3 mg/kg once a day, day 9 to day 17 after adjuvant, pain threshold at day 18; 8˜10 cases
readout name: Percent Effectiveness (%)
Number only, in %; omit the unit.

The cases that follow already have their Percent Effectiveness on record.
{"columns": ["smiles notation", "reported measurement"],
 "data": [
  ["CC(C)(O)C#Cc1nc(Cl)n(Cc2ccc(C(F)(F)F)cc2)c1C(=O)NC[C@H]1CC[C@H](C(=O)O)CC1", 30],
  ["COC(C)(C)C#Cc1nc(Cl)n(Cc2ccc(C(F)(F)F)cc2)c1C(=O)NC[C@H]1CC[C@H](C(=O)O)CC1", 78],
  ["CC(C)(O)C#Cc1nc(Cl)n(Cc2ccc(C(F)(F)F)cc2)c1C(=O)NCc1ccc(C(=O)O)cc1", 38],
  ["COC(C)(C)C#Cc1nc(Cl)n(Cc2ccc(C)cc2)c1C(=O)NC[C@H]1CC[C@H](C(=O)O)CC1", 60],
  ["Cc1ccc(Cn2c(Cl)nc(C#CC(C)(C)O)c2C(=O)NC[C@H]2CC[C@H](C(=O)O)CC2)cc1", 20]
]}

With those in mind, consider the next molecule.
*Q* # lookup: Percent Effectiveness of `COC(C)(C)C#Cc1nc(Cl)n(Cc2ccc(C(F)(F)F)cc2)c1C(=O)NC1(c2ccc(C(=O)O)cc2)CC1`
*A* 90

Where these numbers come from: patent US9855257B2
